- System: K562;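 further: after 48 h exposure read by CellTiter-Glo luminescence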
- protocol description: cell viability relative to vehicle control; higher = less cytotoxic
- recorded conditions: 10 µM; SRSF2 genotype: SRSF2 wt/wt
experimental endpoint: cell viability (%)

>>> reading("COc1cc(F)c(F)c(Nc2ccc(I)cc2F)c1NS(=O)(=O)C1(C[C@H](O)CO)CC1 [Refametinib (RDEA119, Bay 86-9766)]")
62.1
>>> reading("CC1(C)CCC2(C(=O)O)CCC3=C(C(CCl)CC4C3(C)CCC3C4(C)CC(O)C(O)C3(C)C(=O)O)C2C1 (configuration not stated)")
104
>>> reading("O=c1cc(-c2ccc(O)cc2)oc2cc(O)c([C@@H]3O[C@H](CO)[C@@H](O)[C@H](O)[C@H]3O)c(O)c12")
98.3
>>> reading("NC(=O)c1ncn([C@@H]2O[C@H](CO)[C@@H](O)[C@H]2O)n1")
90.2
>>> reading("N#CCC1(n2cc(-c3ncnc4[nH]ccc34)cn2)CN(C2CCN(C(=O)c3ccnc(C(F)(F)F)c3F)CC2)C1")
107
>>> reading("C/C=C(/C)C(=O)O[C@@H]1[C@H](OC(C)=O)c2c(ccc3ccc(=O)oc23)OC1(C)C")
100
>>> reading("CO[C@H]1O[C@@H]2O[C@@]3(C)CC[C@H]4[C@H](C)CC[C@@H]([C@H]1C)[C@@]24OO3")
80.4
